- testedTarget: T1, medium-affinity receptor IL-2Rβ/γ on human cells (Mo7e cell line; human CD8+T and NK cells) (human, UniProt P14784 27-551; P31785 23-369)
- T1 sequence (looked up) 1: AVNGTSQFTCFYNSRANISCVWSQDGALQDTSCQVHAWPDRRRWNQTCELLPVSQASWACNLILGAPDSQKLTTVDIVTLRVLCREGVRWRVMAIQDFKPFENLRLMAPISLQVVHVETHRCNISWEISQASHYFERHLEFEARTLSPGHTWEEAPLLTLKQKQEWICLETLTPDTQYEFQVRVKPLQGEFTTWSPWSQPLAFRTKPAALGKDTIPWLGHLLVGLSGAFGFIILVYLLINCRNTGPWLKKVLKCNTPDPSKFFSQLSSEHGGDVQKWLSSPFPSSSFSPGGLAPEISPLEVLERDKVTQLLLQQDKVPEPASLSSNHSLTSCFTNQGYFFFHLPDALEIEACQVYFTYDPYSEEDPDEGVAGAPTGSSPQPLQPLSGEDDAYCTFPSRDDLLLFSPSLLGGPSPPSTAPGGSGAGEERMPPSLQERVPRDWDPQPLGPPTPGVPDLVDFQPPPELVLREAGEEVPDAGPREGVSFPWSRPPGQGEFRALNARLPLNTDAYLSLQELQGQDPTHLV
- T1 sequence (looked up) 2: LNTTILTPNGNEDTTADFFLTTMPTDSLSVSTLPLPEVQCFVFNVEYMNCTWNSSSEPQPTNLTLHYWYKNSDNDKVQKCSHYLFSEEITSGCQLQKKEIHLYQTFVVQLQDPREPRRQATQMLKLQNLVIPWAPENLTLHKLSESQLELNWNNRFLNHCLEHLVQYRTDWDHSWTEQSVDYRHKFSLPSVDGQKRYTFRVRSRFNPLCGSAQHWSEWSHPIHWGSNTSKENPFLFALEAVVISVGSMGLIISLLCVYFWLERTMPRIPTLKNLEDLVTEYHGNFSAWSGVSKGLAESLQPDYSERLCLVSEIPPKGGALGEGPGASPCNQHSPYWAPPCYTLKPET
- protocolSummary: cell-based or functional assay
property: relative biological activity (Mo7e cell proliferation) (%)
Numbers only; they are read as %.

PEGylated IL-2-10 (ligand, mono-PEGylated with 20 kDa mPEG-butyraldehyde (sodium cyanoborohydride); site not stated, also called PEG-IL-2-10) MAPTSSSTKKTQLQLEHLLLDLQMILQGINSYKNPKLTRMLTAKFYMPKKATELKHLQCLEEELKPLEEVLNGAQSKNFHLRPRDLISNINVIVLELKGSETTFMCEYADETATIVEFLNRWITFAQSIISTLT	19

Req: I'd like to know its relative biological activity (Mo7e cell proliferation). The binder in question is IL-2-10 (N26Q/N30S/F42A/L72G) (ligand, The entry already carries the mutations and C125A and begins with M. Made in E. coli) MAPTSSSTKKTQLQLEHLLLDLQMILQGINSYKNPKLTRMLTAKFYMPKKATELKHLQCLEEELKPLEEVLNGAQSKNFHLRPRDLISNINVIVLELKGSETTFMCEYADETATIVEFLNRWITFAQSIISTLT
Resp: 137
